- measured.on: T1, A Proliferation Inducing Ligand (APRIL) (human), O75888
- T1 chain: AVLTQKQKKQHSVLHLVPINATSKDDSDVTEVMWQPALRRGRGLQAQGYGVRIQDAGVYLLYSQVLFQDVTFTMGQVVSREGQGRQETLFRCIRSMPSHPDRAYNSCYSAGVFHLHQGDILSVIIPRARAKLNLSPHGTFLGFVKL
- test.details: cell binding titration by flow cytometry; soluble APRIL varied to 10 nM on cells displaying the BCMA clone
- measurement.parameters: remark: other sources report otherwise
endpoint.name: Kd (pM)
Answer in pM, number only, no unit symbol.

What value of Kd has been reported for the following binder? wild type human BCMA extracellular domain (sBCMA WT ECD), Q02223 1-54 (receptor) MLQMAGQCSQNEYFDSLLHACIPCQLRCSSNTPPLTCQRYCNASVTNSVKGTNA
25
